Compiled pIC50 measurements on RON (Homo sapiens) taken from the literature.
pIC50: −log10 of the molar value.

Some entries whose results are on file:
>>> print(df.to_string())
                                   compound  recorded_result
0  Nc1ncc(-c2cnn(CCC(=O)NCCO)c2)cc1-c1nc2ccccc2s1     4.70 to 6.00
1  Nc1ncc(-c2cnn(CCC(=O)N3CCC(O)C3)c2)cc1-c1nc2ccccc2s1 (centres unmarked)     4.70 to 6.00
2  COCCN1CCC(n2cc(-c3cnc(N)c(-c4nc5ccccc5s4)c3)cn2)CC1     6.00 to 7.00
3  Nc1ncc(-c2cnn(C3CCNCC3)c2)cc1-c1cc2cccc(F)c2cn1     6.00 to 7.00
4  CC(Oc1cc2sc(NC(=O)NCCCN)nc2cc1F)c1c(Cl)ccc(F)c1Cl (centres unmarked)     5.00 to 6.30
5  CC(Oc1cc2sc(NC(=O)NCCC3CCCN3C)nc2cc1F)c1c(Cl)ccc(F)c1Cl (centres unmarked)           > 6.30
6  O=C(Nc1cccc(C(F)(F)F)c1)Nc1ccc(Oc2ccnc3c2CNC(=O)N3)c(F)c1     7.00 to 8.00

**Q:** pIC50 of O=C(NCCN1CCOCC1)Nc1nc2ccc(OC(c3c(Cl)cccc3Cl)C(F)(F)F)cc2s1 (centres unmarked) on RON (Homo sapiens)?
**A:** 5.00 to 6.30
